Consider the following molecules; for each one, report its MIC.
- Species on record: Mus musculus
- EXPERIMENTAL PROTOCOL: Minimal inhibitory concentration required to cause a microscopic detectable alteration of C3H/3T3 embryo murine fibroblast cell morphology
- Assay type: functional

Recorded MIC, per entry:
>  <MOLECULE>
NC1C(=O)NC2Cc3ccc(c(Cl)c3)Oc3cc4cc(c3O)Oc3ccc(cc3Cl)C(O)C3NC(=O)C(NC(=O)C4NC(=O)C(NC2=O)c2cc(O)cc(c2)Oc2cc1ccc2O)c1ccc(O)c(c1)-c1c(O)cc(O)cc1[C@H](C(=O)O)NC3=O (stereo not given in full)

>  <REPORTED ENDPOINT>
MIC

>  <DATA VALUE>
> 100 µM

$$$$
>  <MOLECULE>
O=C1NC2C(=O)NC3C(=O)NC4C(=O)NC(C(=O)N[C@@H](C(=O)O)c5cc(O)cc(O)c5-c5cc4ccc5O)C(O)c4ccc(c(Cl)c4)Oc4cc3cc(c4O)Oc3ccc(cc3Cl)CC1NC(=O)C(/N=C(\S)Nc1ccccc1)c1ccc(O)c(c1)Oc1cc(O)cc2c1 (stereo not given in full)

>  <REPORTED ENDPOINT>
MIC

>  <DATA VALUE>
100 µM

$$$$
>  <MOLECULE>
CNC(=O)[C@@H]1NC(=O)C2NC(=O)C(NC(=O)C3NC(=O)C4NC(=O)C(Cc5ccc(c(Cl)c5)Oc5cc3cc(c5O)Oc3ccc(cc3Cl)C2O)NC(=O)C(NC(=O)OC23CC5CC(CC(C5)C2)C3)c2ccc(O)c(c2)Oc2cc(O)cc4c2)c2ccc(O)c(c2)-c2c(O)cc(O)cc21 (stereo not given in full)

>  <REPORTED ENDPOINT>
MIC

>  <DATA VALUE>
100 µM

$$$$
>  <MOLECULE>
NC1C(=O)NC2Cc3ccc(c(Cl)c3)Oc3cc4cc(c3O)Oc3ccc(cc3Cl)C(O)C3NC(=O)C(NC(=O)C4NC(=O)C(NC2=O)c2cc(O)cc(c2)Oc2cc1ccc2O)c1ccc(O)c(c1)-c1c(cc(O)c(CNC2C4CC5CC(C4)CC2C5)c1O)[C@H](C(=O)O)NC3=O (stereo not given in full)

>  <REPORTED ENDPOINT>
MIC

>  <DATA VALUE>
100 µM

$$$$
>  <MOLECULE>
COC(=O)[C@H]1NC(=O)C2NC(=O)C(NC(=O)[C@@H]3NC(=O)[C@H]4NC(=O)[C@H](NC(=O)[C@H](N)c5ccc(O)c(c5)Oc5cc4cc(O)c5C)[C@H](O)c4ccc(cc4)Oc4cc3cc(c4O)Oc3ccc(cc3)[C@H]2O[C@@H]2C[C@@H](N)[C@@H](O)[C@@H](C)O2)c2ccc(O)c(c2)-c2c(O)cc(O)cc21

>  <REPORTED ENDPOINT>
MIC

>  <DATA VALUE>
> 100 µM

$$$$
>  <MOLECULE>
O=C(NC1C(=O)NC2Cc3ccc(c(Cl)c3)Oc3cc4cc(c3O)Oc3ccc(cc3Cl)C(O)C3NC(=O)C(NC(=O)C4NC(=O)C(NC2=O)c2cc(O)cc(c2)Oc2cc1ccc2O)c1ccc(O)c(c1)-c1c(O)cc(O)cc1[C@H](C(=O)O)NC3=O)OCc1ccccc1 (stereo not given in full)

>  <REPORTED ENDPOINT>
MIC

>  <DATA VALUE>
> 100 µM

$$$$

Batch request: MIC per item, same order as input.
1. COC(=O)[C@@H]1NC(=O)C2NC(=O)C(NC(=O)C(NC(=O)OC(C)(C)C)c3cc(Oc4ccc(CC(NC(=O)OCc5ccccc5)C(=O)O)cc4Cl)c(O)c(c3)Oc3ccc(cc3Cl)C2O)c2ccc(O)c(c2)-c2c1cc(O)c(CNC1C3CC4CC(C3)CC1C4)c2O (stereo not given in full)
2. CNC(=O)[C@@H]1NC(=O)C2NC(=O)C(NC(=O)C3NC(=O)C4NC(=O)C(Cc5ccc(c(Cl)c5)Oc5cc3cc(c5O)Oc3ccc(cc3Cl)C2O)NC(=O)C(N)c2ccc(O)c(c2)Oc2cc(O)cc4c2)c2ccc(O)c(c2)-c2c(O)cc(O)cc21 (stereo not given in full)
3. CCCCc1ccc(CNCc2c(O)cc3c(c2O)-c2cc(ccc2O)C2NC(=O)C4NC(=O)C5NC(=O)C(Cc6ccc(c(Cl)c6)Oc6cc4cc(c6O)Oc4ccc(cc4Cl)C(O)C(NC2=O)C(=O)N[C@H]3C(=O)O)NC(=O)C(NC(=O)OC(C)(C)C)c2ccc(O)c(c2)Oc2cc(O)cc5c2)cc1 (stereo not given in full)
4. CCCCCCCCCCCCCCCCCCNCc1c(O)cc2c(c1O)-c1cc(ccc1O)C1NC(=O)C3NC(=O)C4NC(=O)C(Cc5ccc(c(Cl)c5)Oc5cc3cc(c5O)Oc3ccc(cc3Cl)C(O)C(NC1=O)C(=O)N[C@H]2C(=O)NC)NC(=O)C(N)c1ccc(O)c(c1)Oc1cc(O)cc4c1 (stereo not given in full)
5. CCCCc1ccc(CNC2C(Oc3c4cc5cc3Oc3ccc(cc3Cl)C(O)C3NC(=O)C(NC(=O)C5NC(=O)C5NC(=O)C(Cc6ccc(cc6)O4)NC(=O)C(NC)c4ccc(O)c(c4)Oc4cc(O)c(Cl)c5c4)c4ccc(O)c(c4)-c4c(O)cc(O)cc4[C@H](C(=O)NCCCN(C)C)NC3=O)OC(C(=O)NCCCN(C)C)C(O)C2O)cc1 (stereo not given in full)

1: > 100 µM; 2: > 100 µM; 3: > 100 µM; 4: 100 µM; 5: > 100 µM

###

- Organism: Mus musculus
- EXPERIMENTAL PROTOCOL: Minimal inhibitory concentration required to cause a microscopic detectable alteration of C3H/3T3 embryo murine fibroblast cell morphology
- Type: functional
REPORTED ENDPOINT: MIC (µM)
Give bare numbers, in µM.

Recorded MIC, per entry:
>  <MOLECULE>
CCCCc1ccc(CN2CCN(Cc3c(O)cc4c(c3O)-c3cc(ccc3O)C3NC(=O)C5NC(=O)C6NC(=O)C(Cc7ccc(cc7)Oc7cc5cc(c7OC5OC(C(=O)O)C(O)C(O)C5N)Oc5ccc(cc5Cl)C(O)C(NC3=O)C(=O)N[C@H]4C(=O)O)NC(=O)C(NC)c3ccc(O)c(c3)Oc3cc(O)c(Cl)c6c3)CC2)cc1 (some centres undefined)

>  <MIC, µM>
100

$$$$
>  <MOLECULE>
CCCCc1ccc(CNCc2c(O)cc3c(c2O)-c2cc(ccc2O)C2NC(=O)C4NC(=O)C5NC(=O)C(Cc6ccc(c(Cl)c6)Oc6cc4cc(c6O)Oc4ccc(cc4Cl)C(O)C(NC2=O)C(=O)N[C@H]3C(=O)NC)NC(=O)C(N)c2ccc(O)c(c2)Oc2cc(O)cc5c2)cc1 (some centres undefined)

>  <MIC, µM>
20

$$$$
>  <MOLECULE>
NCCCCCCNC(=O)[C@@H]1NC(=O)C2NC(=O)C(NC(=O)C3NC(=O)C4NC(=O)C(Cc5ccc(c(Cl)c5)Oc5cc3cc(c5O)Oc3ccc(cc3Cl)C2O)NC(=O)C(N)c2ccc(O)c(c2)Oc2cc(O)cc4c2)c2ccc(O)c(c2)-c2c(O)cc(O)cc21 (some centres undefined)

>  <MIC, µM>
20

$$$$
>  <MOLECULE>
O=C(NC1C(=O)NC2Cc3ccc(c(Cl)c3)Oc3cc4cc(c3O)Oc3ccc(cc3Cl)C(O)C3NC(=O)C(NC(=O)C4NC(=O)C(NC2=O)c2cc(O)cc(c2)Oc2cc1ccc2O)c1ccc(O)c(c1)-c1c(O)cc(O)cc1[C@H](C(=O)O)NC3=O)OCC1c2ccccc2-c2ccccc21 (some centres undefined)

>  <MIC, µM>
100

$$$$

Consider the molecule CN(C)CCCNC(=O)[C@@H]1NC(=O)C2NC(=O)C(NC(=O)C3NC(=O)C4NC(=O)C(Cc5ccc(c(Cl)c5)Oc5cc3cc(c5O)Oc3ccc(cc3Cl)C2O)NC(=O)C(N)c2ccc(O)c(c2)Oc2cc(O)cc4c2)c2ccc(O)c(c2)-c2c1cc(O)c(CNC1C3CC4CC(C3)CC1C4)c2O (some centres undefined) and give its measured MIC.
20

###

- System: Human immunodeficiency virus 1
- EXPERIMENTAL PROTOCOL: Effective concentration of compound required to protect human T-lymphocytic cells against the cytopathogenicity of HIV-1
- Type: functional, organism-based
- ASSAY CONTEXT: Human immunodeficiency virus 1
Consider the following compounds; for each one, report its pEC50.
Numbers only, as −log10 of the molar value.

>  <COMPOUND>
CC(=O)N[C@@H]1[C@H](OC2c3ccc(c(Cl)c3)Oc3cc4cc(c3O[C@@H]3O[C@@H](CO)[C@@H](O)[C@H](O)[C@@H]3NC(=O)CCCCCCC(C)C)Oc3ccc(cc3Cl)C(O)C3NC(=O)C(N)c5ccc(O)c(c5)Oc5cc(O)cc(c5)C(NC3=O)C(=O)NC4C(=O)NC3C(=O)NC2C(=O)N[C@@H](C(=O)O)c2cc(O)cc(O[C@H]4O[C@H](CO)[C@@H](O)[C@@H](O)[C@@H]4O)c2-c2cc3ccc2O)O[C@@H](CO)[C@@H](O)[C@@H]1O (stereo partly drawn)

>  <EXPERIMENTAL SYSTEM>
Human immunodeficiency virus 1

>  <pEC50>
4.77

$$$$
>  <COMPOUND>
NC1Cc2ccc(c(Cl)c2)Oc2cc3cc(c2O)Oc2ccc(cc2Cl)C(O)C2NC(=O)C(NC(=O)C3NC(=O)C(c3cc(O)cc(Oc4cc(C5NC(=S)N(c6ccccc6)C5=O)ccc4O)c3)NC1=O)c1ccc(O)c(c1)-c1c(O)cc(O)cc1[C@H](C(=O)O)NC2=O (stereo partly drawn)

>  <EXPERIMENTAL SYSTEM>
Human immunodeficiency virus 1

>  <pEC50>
4.82

$$$$
>  <COMPOUND>
CNC(=O)[C@@H]1NC(=O)C2NC(=O)C(NC(=O)C3NC(=O)C(CC(N)=O)NC(=O)C(NC(=O)C(CC(C)C)NC)C(O)c4ccc(c(Cl)c4)Oc4cc3cc(c4O)Oc3ccc(cc3)C2O)c2ccc(O)c(c2)-c2c1cc(O)c(CN1CCN(Cc3ccc(-c4ccccc4)cc3)CC1)c2O (stereo partly drawn)

>  <EXPERIMENTAL SYSTEM>
Human immunodeficiency virus 1

>  <pEC50>
5.40

$$$$
>  <COMPOUND>
CCCCc1ccc(CN2CCN(Cc3c(O)cc4c(c3O)-c3cc(ccc3O)C3NC(=O)C5NC(=O)C6NC(=O)C(Cc7ccc(c(Cl)c7)Oc7cc5cc(c7O)Oc5ccc(cc5Cl)C(O)C(NC3=O)C(=O)N[C@H]4C(=O)NCCCN(C)C)NC(=O)C(N)c3ccc(O)c(c3)Oc3cc(O)cc6c3)CC2)cc1 (stereo partly drawn)

>  <EXPERIMENTAL SYSTEM>
Human immunodeficiency virus 1

>  <pEC50>
5.52

$$$$
>  <COMPOUND>
CNC(=O)[C@@H]1NC(=O)C2NC(=O)C(NC(=O)C3NC(=O)C4NC(=O)C(Cc5ccc(c(Cl)c5)Oc5cc3cc(c5O)Oc3ccc(cc3Cl)C2O)NC(=O)C(NC(=O)OC23CC5CC(CC(C5)C2)C3)c2ccc(O)c(c2)Oc2cc(O)cc4c2)c2ccc(O)c(c2)-c2c(O)cc(O)cc21 (stereo partly drawn)

>  <EXPERIMENTAL SYSTEM>
Human immunodeficiency virus 1

>  <pEC50>
4.77

$$$$
>  <COMPOUND>
CNC1C(=O)NC2Cc3ccc(cc3)Oc3cc4cc(c3OC3OC(C(=O)O)C(O)C(O)C3N)Oc3ccc(cc3Cl)C(O)C3NC(=O)C(NC(=O)C4NC(=O)C(NC2=O)c2cc(cc(O)c2Cl)Oc2cc1ccc2O)c1ccc(O)c(c1)-c1c(O)cc(O)cc1[C@H](C(=O)O)NC3=O (stereo partly drawn)

>  <EXPERIMENTAL SYSTEM>
Human immunodeficiency virus 1

>  <pEC50>
3.94

$$$$
>  <COMPOUND>
NC1C(=O)NC2Cc3ccc(c(Cl)c3)Oc3cc4cc(c3O)Oc3ccc(cc3Cl)C(O)C3NC(=O)C(NC(=O)C4NC(=O)C(NC2=O)c2cc(O)cc(c2)Oc2cc1ccc2O)c1ccc(O)c(c1)-c1c(cc(O)c(CNC2C4CC5CC(C4)CC2C5)c1O)[C@H](C(=O)O)NC3=O (stereo partly drawn)

>  <EXPERIMENTAL SYSTEM>
Human immunodeficiency virus 1

>  <pEC50>
4.60

$$$$
>  <COMPOUND>
CCCCCCCCCCNCc1c(O)cc2c(c1O)-c1cc(ccc1O)C1NC(=O)C3NC(=O)C4NC(=O)C(Cc5ccc(c(Cl)c5)Oc5cc3cc(c5O)Oc3ccc(cc3Cl)C(O)C(NC1=O)C(=O)N[C@H]2C(=O)NCCCN(C)C)NC(=O)C(N)c1ccc(O)c(c1)Oc1cc(O)cc4c1 (stereo partly drawn)

>  <EXPERIMENTAL SYSTEM>
Human immunodeficiency virus 1

>  <pEC50>
5.85

$$$$

Batch request: pEC50 per item, same order as input.
1. O=C1NC2C(=O)NC3C(=O)NC4C(=O)NC(C(=O)N[C@@H](C(=O)O)c5cc(O)cc(O)c5-c5cc4ccc5O)C(O)c4ccc(c(Cl)c4)Oc4cc3cc(c4O)Oc3ccc(cc3Cl)CC1NC(=O)C(NC(=O)C13CC4CC(CC(C4)C1)C3)c1ccc(O)c(c1)Oc1cc(O)cc2c1 (stereo partly drawn)
2. COC(=O)[C@@H]1NC(=O)C2NC(=O)C(NC(=O)C(NC(=O)OC(C)(C)C)c3cc(Oc4ccc(CC(NC(=O)OCc5ccccc5)C(=O)O)cc4Cl)c(O)c(c3)Oc3ccc(cc3Cl)C2O)c2ccc(O)c(c2)-c2c(O)cc(O)cc21 (stereo partly drawn)

1. 5.00
2. 4.77

// provenance: ChEMBL document CHEMBL1145814
